# test_summary: Cytotoxicity against human HuH7 cells treated for 8 days measured post-last dose by Celltiter-glo luminescent assay
# Format: cell-based, Huh-7
assay_readout: CC50 at 192 h (µM)
// note: answer is a bare numeric in µM

{"molecule": "COc1nc(N)nc2c1ncn2[C@@H]1O[C@H](COP(=O)(N[C@@H](C)C(=O)OCC(C)(C)C)Oc2cccc3ccccc23)[C@@H](O)[C@@]1(C)O (some centres not stated) [BMS-986094]", "units_of_measure": "µM", "CC50 at 192 h": 0.35}

We next turn to a different molecule, shown below.
The reported value for CC(C)OC(=O)[C@H](C)N[P@](=O)(OC[C@@]1(F)O[C@@H](n2ccc(=O)[nH]c2=O)[C@](C)(O)[C@@H]1O)Oc1ccccc1 [ADAFOSBUVIR] in terms of CC50 at 192 h is 96.1

====

# measured_target: UniProt O39930
# Sequence (O39930 whole entry): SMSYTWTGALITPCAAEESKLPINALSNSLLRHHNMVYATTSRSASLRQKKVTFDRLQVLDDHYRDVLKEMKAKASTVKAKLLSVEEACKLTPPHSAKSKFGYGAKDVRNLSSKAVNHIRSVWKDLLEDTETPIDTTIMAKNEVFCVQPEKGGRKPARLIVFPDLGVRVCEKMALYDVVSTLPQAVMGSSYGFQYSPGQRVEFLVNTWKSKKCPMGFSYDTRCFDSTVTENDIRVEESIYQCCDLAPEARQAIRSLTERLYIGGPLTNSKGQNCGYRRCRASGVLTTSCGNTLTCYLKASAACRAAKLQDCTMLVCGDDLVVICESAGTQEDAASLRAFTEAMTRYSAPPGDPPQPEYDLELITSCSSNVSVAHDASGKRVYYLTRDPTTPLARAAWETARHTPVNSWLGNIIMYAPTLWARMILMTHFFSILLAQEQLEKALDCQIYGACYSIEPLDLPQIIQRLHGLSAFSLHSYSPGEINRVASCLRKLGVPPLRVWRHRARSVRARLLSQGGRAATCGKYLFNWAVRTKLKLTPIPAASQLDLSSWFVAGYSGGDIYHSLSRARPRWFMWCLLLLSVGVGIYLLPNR
assay_readout: IC50 (µM)
// note: answer is a bare numeric in µM

The reported value for "C#C[C@@]1(O)[C@H](O)[C@@H](COP(=O)(O)OP(=O)(O)OP(=O)(O)O)O[C@H]1n1ccc(=O)[nH]c1=O" in terms of IC50 is 0.027

The reported value for "C#C[C@]1(F)[C@H](n2ccc(=O)[nH]c2=O)O[C@](F)(COP(=O)(O)OP(=O)(O)OP(=O)(O)O)[C@H]1O" in terms of IC50 is 0.34

The reported value for C[C@]1(O)[C@H](n2ccc(=O)[nH]c2=O)O[C@](F)(COP(=O)(O)OP(=O)(O)OP(=O)(O)O)[C@H]1O [ADAFOSBUVIR 5'-TRIPHOSPHATE] in terms of IC50 is 0.14

The reported value for "O=c1ccn([C@@H]2O[C@H](COP(=O)(O)OP(=O)(O)OP(=O)(O)O)[C@@H](O)[C@]2(F)Cl)c(=O)[nH]1" in terms of IC50 is 0.3

The reported value for "C=C[C@]1(O)[C@H](n2ccc(=O)[nH]c2=O)O[C@](F)(COP(=O)(O)OP(=O)(O)OP(=O)(O)O)[C@H]1O" in terms of IC50 is 6.4

The reported value for "CC[C@]1(O)[C@H](n2ccc(=O)[nH]c2=O)O[C@](F)(COP(=O)(O)OP(=O)(O)OP(=O)(O)O)[C@H]1O" in terms of IC50 is 84

====

# measured_target: DNA polymerase alpha (Homo sapiens)
# Sequence (P09884 whole entry): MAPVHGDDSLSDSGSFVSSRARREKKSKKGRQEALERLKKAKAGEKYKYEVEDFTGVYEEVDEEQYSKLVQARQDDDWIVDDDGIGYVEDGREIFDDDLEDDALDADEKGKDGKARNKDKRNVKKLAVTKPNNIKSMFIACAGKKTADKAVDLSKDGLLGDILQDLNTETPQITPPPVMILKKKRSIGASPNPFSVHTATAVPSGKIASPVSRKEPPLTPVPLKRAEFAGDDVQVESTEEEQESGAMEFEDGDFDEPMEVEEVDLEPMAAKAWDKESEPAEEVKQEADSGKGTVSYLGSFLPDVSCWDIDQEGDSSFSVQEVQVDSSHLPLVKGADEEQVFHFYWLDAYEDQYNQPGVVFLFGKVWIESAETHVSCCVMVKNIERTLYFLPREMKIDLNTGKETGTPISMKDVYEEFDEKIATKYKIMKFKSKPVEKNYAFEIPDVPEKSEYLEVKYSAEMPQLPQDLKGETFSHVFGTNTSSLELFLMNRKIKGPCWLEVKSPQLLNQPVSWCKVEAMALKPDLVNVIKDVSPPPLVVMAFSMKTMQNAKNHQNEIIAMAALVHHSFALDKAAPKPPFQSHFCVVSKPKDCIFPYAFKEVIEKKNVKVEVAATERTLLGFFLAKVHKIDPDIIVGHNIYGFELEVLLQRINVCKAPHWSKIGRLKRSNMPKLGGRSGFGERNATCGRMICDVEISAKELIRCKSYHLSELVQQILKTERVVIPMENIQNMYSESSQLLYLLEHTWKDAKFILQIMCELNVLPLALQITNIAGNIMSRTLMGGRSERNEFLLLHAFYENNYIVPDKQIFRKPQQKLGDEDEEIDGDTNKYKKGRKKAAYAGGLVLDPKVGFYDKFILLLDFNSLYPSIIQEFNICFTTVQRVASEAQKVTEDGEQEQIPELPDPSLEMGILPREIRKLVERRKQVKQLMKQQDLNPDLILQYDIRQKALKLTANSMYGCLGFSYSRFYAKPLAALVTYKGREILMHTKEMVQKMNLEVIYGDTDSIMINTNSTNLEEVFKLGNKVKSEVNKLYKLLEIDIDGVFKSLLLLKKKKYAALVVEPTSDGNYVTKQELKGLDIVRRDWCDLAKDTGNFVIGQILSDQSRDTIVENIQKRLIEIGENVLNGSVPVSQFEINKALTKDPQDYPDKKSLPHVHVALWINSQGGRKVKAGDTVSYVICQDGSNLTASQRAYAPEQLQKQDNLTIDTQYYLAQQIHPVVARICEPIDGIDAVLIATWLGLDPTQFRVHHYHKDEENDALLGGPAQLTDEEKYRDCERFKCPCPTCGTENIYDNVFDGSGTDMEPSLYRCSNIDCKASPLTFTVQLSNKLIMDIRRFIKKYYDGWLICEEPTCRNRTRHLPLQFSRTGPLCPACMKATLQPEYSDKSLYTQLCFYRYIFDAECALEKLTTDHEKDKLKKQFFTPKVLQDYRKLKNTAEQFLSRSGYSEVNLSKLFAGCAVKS
# test_summary: Inhibition of human DNA polymerase-alpha assessed as reduction in [3H]dTTP incorporation in to activated calf thymus DNA substrate at 100 uM by scintillation counting method relative to control
# cond: human DNA polymerase-alpha enzyme, probe [3H]dTTP
assay_readout: inhibition at 100 µM (%)
// note: answer is a bare numeric in %

{"molecule": "C[C@]1(Cl)[C@H](n2ccc(=O)[nH]c2=O)O[C@](F)(COP(=O)(O)OP(=O)(O)OP(=O)(O)O)[C@H]1O", "units_of_measure": "%", "inhibition at 100 µM": 19.7}
{"molecule": "O=c1ccn([C@@H]2O[C@H](COP(=O)(O)OP(=O)(O)OP(=O)(O)O)[C@@H](O)[C@]2(F)Cl)c(=O)[nH]1", "units_of_measure": "%", "inhibition at 100 µM": 70.8}

The reported value for C[C@@]1(Cl)[C@H](O)[C@@H](COP(=O)(O)OP(=O)(O)OP(=O)(O)O)O[C@H]1n1ccc(=O)[nH]c1=O [4A-TP] in terms of inhibition at 100 µM is 34.5

The reported value for "O=c1ccn([C@@H]2O[C@](F)(COP(=O)(O)OP(=O)(O)OP(=O)(O)O)[C@@H](O)[C@]2(F)Cl)c(=O)[nH]1" in terms of inhibition at 100 µM is 75.8

====

# test_summary: Cytotoxicity against human MT4 cells treated for 8 days measured post-last dose by Celltiter-glo luminescent assay
# Format: cell-based
assay_readout: CC50 at 192 h (nM)
// note: answer is a bare numeric in nM

The reported value for COc1nc(N)nc2c1ncn2[C@@H]1O[C@H](COP(=O)(N[C@@H](C)C(=O)OCC(C)(C)C)Oc2cccc3ccccc23)[C@@H](O)[C@@]1(C)O (some centres not stated) in terms of CC50 at 192 h is 960

====

# test_summary: Inhibition of RNA polymerase 2 in human HeLa cell nuclear extract assessed as reduction in RNA transcription by PAGE analysis
# Assay type: cell-based
assay_readout: IC50

Before answering, review these 2 worked examples.
{"compound": "C[C@]1(Cl)[C@H](n2ccc(=O)[nH]c2=O)O[C@](F)(COP(=O)(O)OP(=O)(O)OP(=O)(O)O)[C@H]1O", "observed_measurement": "> 100 µM"}
{"compound": "C[C@@]1(F)[C@H](O)[C@@H](COP(=O)(O)OP(=O)(O)OP(=O)(O)O)O[C@H]1n1ccc(=O)[nH]c1=O [GS-461203]", "observed_measurement": "> 100 µM"}

We next turn to a different compound, shown below.
The reported value for C[C@]1(O)[C@H](n2ccc(=O)[nH]c2=O)O[C@](F)(COP(=O)(O)OP(=O)(O)OP(=O)(O)O)[C@H]1O [ADAFOSBUVIR 5'-TRIPHOSPHATE] in terms of IC50 is > 100 µM

====

Measured inhibition at 100 µM, listed per entry for reference.
# measured_target: DNA polymerase gamma (Homo sapiens, UniProt P54098)
# Sequence (P54098 whole entry): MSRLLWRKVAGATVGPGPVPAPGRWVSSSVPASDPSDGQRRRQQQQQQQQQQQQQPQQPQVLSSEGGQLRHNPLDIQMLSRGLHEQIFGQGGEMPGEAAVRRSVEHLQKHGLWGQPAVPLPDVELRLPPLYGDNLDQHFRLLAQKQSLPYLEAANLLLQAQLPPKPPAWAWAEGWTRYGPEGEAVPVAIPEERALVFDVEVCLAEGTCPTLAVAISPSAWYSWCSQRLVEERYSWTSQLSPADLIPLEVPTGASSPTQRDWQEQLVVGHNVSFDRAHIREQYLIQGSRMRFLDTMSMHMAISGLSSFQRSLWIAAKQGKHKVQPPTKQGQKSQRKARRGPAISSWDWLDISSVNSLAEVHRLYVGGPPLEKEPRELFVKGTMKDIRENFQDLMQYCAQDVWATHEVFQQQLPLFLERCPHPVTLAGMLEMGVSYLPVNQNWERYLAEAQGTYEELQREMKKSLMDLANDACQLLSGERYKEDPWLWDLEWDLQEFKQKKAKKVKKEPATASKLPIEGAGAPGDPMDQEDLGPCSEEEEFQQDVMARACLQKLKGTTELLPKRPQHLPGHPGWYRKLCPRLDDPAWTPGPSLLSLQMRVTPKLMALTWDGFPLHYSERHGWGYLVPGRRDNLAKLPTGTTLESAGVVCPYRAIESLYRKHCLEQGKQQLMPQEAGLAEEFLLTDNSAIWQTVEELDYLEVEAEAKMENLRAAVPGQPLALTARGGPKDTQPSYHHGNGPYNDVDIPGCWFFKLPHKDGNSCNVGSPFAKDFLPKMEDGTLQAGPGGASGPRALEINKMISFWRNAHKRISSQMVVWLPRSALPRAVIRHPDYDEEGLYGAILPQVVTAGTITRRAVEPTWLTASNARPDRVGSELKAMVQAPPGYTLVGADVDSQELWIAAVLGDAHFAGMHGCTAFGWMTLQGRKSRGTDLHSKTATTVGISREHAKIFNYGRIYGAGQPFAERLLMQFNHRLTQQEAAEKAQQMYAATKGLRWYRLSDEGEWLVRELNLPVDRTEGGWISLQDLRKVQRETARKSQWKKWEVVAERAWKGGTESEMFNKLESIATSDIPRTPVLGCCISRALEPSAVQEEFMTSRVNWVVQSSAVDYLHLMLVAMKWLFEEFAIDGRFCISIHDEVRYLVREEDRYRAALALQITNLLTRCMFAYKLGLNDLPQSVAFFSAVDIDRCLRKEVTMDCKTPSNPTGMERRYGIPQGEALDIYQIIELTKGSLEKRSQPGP
# test_summary: Inhibition of human DNA polymerase-gamma assessed as reduction in [3H]dTTP incorporation in to activated calf thymus DNA substrate at 100 uM by scintillation counting method relative to control
# cond: human DNA polymerase-gamma enzyme, probe [3H]dTTP
// note: answer is a bare numeric in %

Before answering, review these 4 worked examples.
{"molecule": "C[C@]1(Cl)[C@H](n2ccc(=O)[nH]c2=O)O[C@](F)(COP(=O)(O)OP(=O)(O)OP(=O)(O)O)[C@H]1O", "measured_target": "DNA polymerase gamma (Homo sapiens, UniProt P54098)", "inhibition at 100 µM [%]": 18.4}
{"molecule": "C[C@@]1(Cl)[C@H](O)[C@@H](COP(=O)(O)OP(=O)(O)OP(=O)(O)O)O[C@H]1n1ccc(=O)[nH]c1=O", "measured_target": "DNA polymerase gamma (Homo sapiens, UniProt P54098)", "inhibition at 100 µM [%]": 9.5}
{"molecule": "C[C@]1(F)[C@H](n2ccc(=O)[nH]c2=O)O[C@](F)(COP(=O)(O)OP(=O)(O)OP(=O)(O)O)[C@H]1O", "measured_target": "DNA polymerase gamma (Homo sapiens, UniProt P54098)", "inhibition at 100 µM [%]": -10}
{"molecule": "O=c1ccn([C@@H]2O[C@](F)(COP(=O)(O)OP(=O)(O)OP(=O)(O)O)[C@@H](O)[C@]2(F)Cl)c(=O)[nH]1", "measured_target": "DNA polymerase gamma (Homo sapiens, UniProt P54098)", "inhibition at 100 µM [%]": 7.9}

We next turn to a different molecule, shown below.
The reported value for "C[C@@]1(O)[C@H](O)[C@@H](COP(=O)(O)OP(=O)(O)OP(=O)(O)O)O[C@H]1n1ccc(=O)[nH]c1=O" in terms of inhibition at 100 µM is 14.6

====

# measured_target: DNA-directed RNA polymerase, mitochondrial (Homo sapiens, UniProt O00411)
# Sequence (O00411 whole entry): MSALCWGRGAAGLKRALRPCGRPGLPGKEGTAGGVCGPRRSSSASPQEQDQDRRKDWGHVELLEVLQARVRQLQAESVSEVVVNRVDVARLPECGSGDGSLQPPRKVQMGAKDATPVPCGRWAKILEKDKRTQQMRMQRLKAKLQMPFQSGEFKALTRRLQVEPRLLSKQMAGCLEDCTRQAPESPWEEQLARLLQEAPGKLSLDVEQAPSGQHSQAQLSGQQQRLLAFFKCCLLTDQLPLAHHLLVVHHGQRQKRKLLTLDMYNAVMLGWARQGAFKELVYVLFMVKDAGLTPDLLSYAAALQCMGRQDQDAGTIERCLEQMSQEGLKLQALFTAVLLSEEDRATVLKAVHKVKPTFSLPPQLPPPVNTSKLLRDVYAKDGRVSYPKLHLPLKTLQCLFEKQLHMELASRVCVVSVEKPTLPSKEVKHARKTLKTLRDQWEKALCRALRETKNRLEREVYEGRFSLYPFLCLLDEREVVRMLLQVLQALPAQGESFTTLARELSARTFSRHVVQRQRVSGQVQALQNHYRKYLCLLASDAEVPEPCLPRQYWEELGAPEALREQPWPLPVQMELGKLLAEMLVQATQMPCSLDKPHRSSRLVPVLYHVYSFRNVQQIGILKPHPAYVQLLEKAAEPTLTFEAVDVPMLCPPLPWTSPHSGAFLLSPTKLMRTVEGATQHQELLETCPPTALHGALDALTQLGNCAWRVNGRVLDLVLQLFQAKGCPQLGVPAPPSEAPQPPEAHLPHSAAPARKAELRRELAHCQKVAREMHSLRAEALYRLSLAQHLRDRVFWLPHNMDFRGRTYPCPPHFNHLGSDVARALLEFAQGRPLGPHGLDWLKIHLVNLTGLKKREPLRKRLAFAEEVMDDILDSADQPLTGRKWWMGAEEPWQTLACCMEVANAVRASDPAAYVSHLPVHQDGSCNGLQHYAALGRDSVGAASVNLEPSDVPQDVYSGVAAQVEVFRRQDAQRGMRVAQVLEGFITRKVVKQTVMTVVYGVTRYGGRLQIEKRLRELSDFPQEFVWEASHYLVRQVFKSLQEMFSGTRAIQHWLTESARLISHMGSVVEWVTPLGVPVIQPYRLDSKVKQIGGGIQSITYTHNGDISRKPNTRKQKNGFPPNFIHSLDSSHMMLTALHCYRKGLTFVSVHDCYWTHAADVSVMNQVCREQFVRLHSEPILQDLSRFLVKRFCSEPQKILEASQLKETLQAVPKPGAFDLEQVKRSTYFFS
# test_summary: Inhibition of human mitochondrial DNA-dependent RNA polymerase activity at 100 uM using 33P-RNA/DNA primer/template by phosphor-imaging analysis

{"compound": "C[C@@]1(Cl)[C@H](O)[C@@H](COP(=O)(O)OP(=O)(O)OP(=O)(O)O)O[C@H]1n1ccc(=O)[nH]c1=O", "inhibition (INH)": "Active"}
{"compound": "C[C@@]1(O)[C@H](O)[C@@H](COP(=O)(O)OP(=O)(O)OP(=O)(O)O)O[C@H]1n1ccc(=O)[nH]c1=O", "inhibition (INH)": "Active"}
{"compound": "C[C@]1(O)[C@H](n2ccc(=O)[nH]c2=O)O[C@](F)(COP(=O)(O)OP(=O)(O)OP(=O)(O)O)[C@H]1O [ADAFOSBUVIR 5'-TRIPHOSPHATE]", "inhibition (INH)": "Not Active"}
{"compound": "C[C@]1(Cl)[C@H](n2ccc(=O)[nH]c2=O)O[C@](F)(COP(=O)(O)OP(=O)(O)OP(=O)(O)O)[C@H]1O", "inhibition (INH)": "Not Active"}

====

# test_summary: Cytotoxicity against human A549 cells treated for 8 days measured post-last dose by Celltiter-glo luminescent assay
# Assay type: cell-based
assay_readout: CC50 at 192 h (µM)
// note: answer is a bare numeric in µM

The reported value for COc1nc(N)nc2c1ncn2[C@@H]1O[C@H](COP(=O)(N[C@@H](C)C(=O)OCC(C)(C)C)Oc2cccc3ccccc23)[C@@H](O)[C@@]1(C)O (some centres not stated) in terms of CC50 at 192 h is 7.8
